Provenance of the data: patent US20100068204A1

experimental.system: human TOR (FLAG-TOR) (Homo sapiens, UniProt P42345)
measurement.description: mTOR enzyme assay (DELFIA format, purified enzyme)
conditions.used: 800 ng/ml FLAG-TOR, 100 μM ATP, 1.25 μM His6-S6K; read-out: mTOR Kinase IC50
attribute.measured: IC50 (nM)
State just the number; it will be interpreted in nM.

For reference, reported IC50 for CN(C)CCNC(=O)c1ccc(-c2cccc(Oc3cc(=O)[nH]c4ccccc34)c2)cc1 stands at 240

For reference, reported IC50 for COc1ncccc1CNc1cccc(Oc2cc(=O)[nH]c3ccccc23)c1 stands at 400

For reference, reported IC50 for Nc1ncccc1CNc1cccc(Oc2cc(=O)[nH]c3ccccc23)c1 stands at 70

For reference, reported IC50 for CN1CCC(Nc2ccc(-c3cccc(Oc4cc(=O)[nH]c5ccccc45)c3)cc2)CC1 stands at 50

For reference, reported IC50 for N#CCc1cccc(Oc2cc(=O)[nH]c3ccccc23)c1 stands at 300

For reference, reported IC50 for O=c1cc(Oc2cccc(NCC3CCN(Cc4ccccc4)CC3)c2)c2ccccc2[nH]1 stands at 180

For reference, reported IC50 for O=c1cc(Oc2ccc(C3N=CCN3)cc2)c2ccccc2[nH]1 (centres unmarked) stands at 780

For reference, reported IC50 for COc1ncc(-c2cccc(Oc3cc(=O)[nH]c4ccccc34)c2)c(OC)n1 stands at 280

For reference, reported IC50 for Nc1cccc(-c2cccc(Oc3cc(=O)[nH]c4ccccc34)c2)c1 stands at 170
